B1: Twister Ribozyme (parent)
chain: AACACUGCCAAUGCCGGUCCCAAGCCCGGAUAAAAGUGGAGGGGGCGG

# Variants of: B1
# ASSAY_DETAILS: self-cleavage, relative activity (ratio to wild type); higher = more cleavage; co-transcriptional
Quick list: self-cleavage per entry.

# MUTANT_NAME, self-cleavage
measured = [
    ("A40U G45U", 0.177),
    ("G16U G47A", 0.378),
    ("A34U A35C", 0.892),
    ("C8A G38U", 0.169),
    ("A4U U37G", 0.624),
    ("A2C A40C", 0.07),
    ("G16C A30U", 0.741),
    ("A23G G43A", 0.0981),
    ("C9A G24U", 0.111),
    ("C3G C25U", 0.317),
    ("G16C G28A", 0.194),
    ("G7A U37G", 0.162),
    ("C3G C21A", 0.0645),
    ("C5U C20G", 0.102),
    ("G24U G36C", 0.0879),
    ("G13U C19A", 0.0828),
    ("C14U A30C", 1.08),
    ("U6G A30G", 0.322),
    ("A1C G28C", 0.155),
    ("A33U G47A", 0.739),
    ("U6A C14G", 0.124),
    ("C14U G44A", 1.08),
    ("U6A A22C", 0.936),
    ("G29A G38C", 0.7),
    ("C15U A23U", 0.291),
    ("C9G A35G", 0.591),
    ("U12A G38C", 1.11),
    ("C20U A34G", 0.373),
    ("A11G G17A", 0.372),
    ("U6A C27G", 0.11),
    ("C15A G48U", 0.573),
    ("C20A A22C", 0.126),
    ("C25U G47A", 0.663),
    ("G36C G39C", 0.113),
    ("C20U G45C", 0.425),
    ("G17C G39A", 0.0934),
    ("U12A A40U", 0.192),
    ("G43A G47U", 0.175),
    ("C8U A40U", 0.17),
    ("G42U G48A", 0.25),
    ("A11C U37A", 0.886),
    ("U18A U37G", 0.137),
    ("U12G U37A", 0.576),
    ("A32C G45A", 0.95),
    ("A30G G38U", 0.771),
    ("G28U G44A", 0.718),
    ("A35U G36C", 0.592),
    ("A2C C25G", 0.0416),
    ("U6G G39C", 0.124),
    ("C14G G24C", 0.0845),
    ("U6G C25A", 0.058),
    ("G29C G38C", 0.736),
    ("A22G C26A", 0.0908),
    ("C5G G7C", 0.0519),
    ("C8U C14G", 0.0673),
    ("U18C C21U", 0.0707),
    ("G7U C19G", 0.0806),
    ("C9U G16C", 0.13),
    ("A2C G16A", 0.116),
    ("C21A U31G", 0.119),
    ("C19U A32G", 0.855),
    ("G29A A33U", 0.759),
    ("C5G A11U", 0.665),
    ("G13C A30C", 0.518),
    ("A4G G42U", 0.195),
    ("G39A G42A", 0.146),
    ("C3A C26A", 0.139),
    ("A22C G47U", 0.917),
    ("C8G G36C", 0.119),
    ("A11C C14U", 0.909),
    ("A4C U31A", 0.182),
    ("C20U C46A", 0.784),
    ("U12C A32C", 0.982),
    ("U31G G38A", 0.937),
    ("G39A G41C", 0.126),
    ("G17A A40G", 0.171),
    ("C3G G16C", 0.123),
    ("A22G G44C", 0.225),
    ("G13C C25A", 0.0747),
    ("A4C C21U", 0.0583),
    ("C26A G42U", 0.109),
    ("U18A G24C", 0.0951),
    ("C27U C46U", 0.822),
    ("C15A A32U", 0.667),
    ("C14U G47A", 0.947),
]

Where do these numbers come from? They come from the RNAGym collection of RNA variant scans (doi:10.7554/elife.80360).
